Reference for the values: patent US20240279341A1

tgt: T1, recombinant human MerTK extracellular domain (human, UniProt Q12866 21-505)
T1 construct: also called huMerTK; not shown: PolyHis tag or TEVS/Thrombin/murine IgG2a Fc tag (a DDDDK-tagged commercial protein is also mentioned); which form was t
T1 sequence: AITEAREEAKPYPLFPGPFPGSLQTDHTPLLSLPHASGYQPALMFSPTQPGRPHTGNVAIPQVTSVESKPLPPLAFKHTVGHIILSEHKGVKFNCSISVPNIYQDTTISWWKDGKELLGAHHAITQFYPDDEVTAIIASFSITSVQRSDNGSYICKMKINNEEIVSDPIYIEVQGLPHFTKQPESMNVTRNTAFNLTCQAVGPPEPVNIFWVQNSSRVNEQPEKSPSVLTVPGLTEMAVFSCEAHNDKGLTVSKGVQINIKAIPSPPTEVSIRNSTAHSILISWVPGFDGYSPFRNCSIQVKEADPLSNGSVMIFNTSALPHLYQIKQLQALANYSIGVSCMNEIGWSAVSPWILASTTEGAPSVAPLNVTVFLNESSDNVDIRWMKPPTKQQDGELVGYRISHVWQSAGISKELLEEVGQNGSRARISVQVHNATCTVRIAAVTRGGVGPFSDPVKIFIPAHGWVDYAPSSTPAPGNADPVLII
protocolSummary: SPR (Carterra LSA), antibody immobilized, MerTK ECD as analyte; estimate, fits not ideal for a 1:1 model
metricName: pKd
When answering, recall that pKd equals minus log10 of the concentration in mol/L, and write that number alone.

Completed entries (count: 3):
binder	pKd
bivalent anti-MerTK antibody MTK-33.11 (full IgG) (antibody, V domains shown) VH: QVQLVQSGAEVKKPGASVKVSCKASGYTFTSYWMHWVRQAPGQGLEWIGVIDPSDNYINYNQKFQGRVTMTRDTSTSTVYMELSSLRSEDTAVYYCAREAWTRGYFDYWGQGTLVTVSS VL: DIQMTQSPSSLSASVGDRVTITCQASRSVRNTVAWYQQKPGKAPKLLIYYASNRYTGVPSRFSGSGSGTDFTFTISSLQPEDIATYYCQQDYRSPFTFGQGTKLEIKR	8.70
monovalent anti-MerTK antibody MTK-33.11 (antibody, V domains shown) VH: QVQLVQSGAEVKKPGASVKVSCKASGYTFTSYWMHWVRQAPGQGLEWIGVIDPSDNYINYNQKFQGRVTMTRDTSTSTVYMELSSLRSEDTAVYYCAREAWTRGYFDYWGQGTLVTVSS VL: DIQMTQSPSSLSASVGDRVTITCQASRSVRNTVAWYQQKPGKAPKLLIYYASNRYTGVPSRFSGSGSGTDFTFTISSLQPEDIATYYCQQDYRSPFTFGQGTKLEIK	8.70
monovalent anti-MerTK antibody MTK-16.2 (antibody, V domains shown) VH: QVQLVQSGSELKKPGASVKVSCKASGYTFTNHGMNWVRQAPGQGLEWMGWINTYTGEPTYADDFKGRFVFSLDTSVSTAYLQISSLKAEDTAVYYCARKGVTAARYFDYWGQGTLVTVSS VL: DIQMTQSPSSLSASVGDRVTITCRASQNVRTAVAWYQQKPGKAPKRLIYLASNRHTGVPSRFSGSGSGTEFTLTISNLQPEDFATYYCLQHWNYPLTFGGGTKLEIK	7.30

Q. Fill in the blank: the reported pKd of bivalent anti-MerTK antibody MTK-16.2 (full IgG) (antibody, V domains shown) VH: QVQLVQSGSELKKPGASVKVSCKASGYTFTNHGMNWVRQAPGQGLEWMGWINTYTGEPTYADDFKGRFVFSLDTSVSTAYLQISSLKAEDTAVYYCARKGVTAARYFDYWGQGTLVTVSS VL: DIQMTQSPSSLSASVGDRVTITCRASQNVRTAVAWYQQKPGKAPKRLIYLASNRHTGVPSRFSGSGSGTEFTLTISNLQPEDFATYYCLQHWNYPLTFGGGTKLEIKR is ____.
A. 7.30
